Values from ChEMBL document CHEMBL1157539

Test system: Plasmodium falciparum
experiment: GSK_TCMDC: Inhibition of Plasmodium falciparum Dd2 in whole red blood cells, using parasite LDH activity as an index of growth. Test compounds present at 2uM
Assay type: functional
endpoint_label: Inhibition
Express the reported value numerically, then name its unit.

Here's what some known entries look like.
compound	target	reading
Fc1ccc2[nH]c(-c3ccccc3)nc2c1CN1CCC(N2CCCC2)CC1.O=CO	Plasmodium falciparum	30%
Cc1ccccc1C1CCN(C2CCC(NC(=O)/C=C/c3ccc(C#N)cc3)CC2)CC1 (stereo not given)	Plasmodium falciparum	13%
CN1CCN(Cc2ccc(-c3ccc4c(Nc5cc(O)c(F)cc5Cl)ccnc4c3)o2)CC1	Plasmodium falciparum	99%

q: Can you share its Inhibition? I mean this compound: CCCCCCCNCc1c(O)ccc2c(CNCCCCCCC)c(O)ccc12.Cl
a: 99%

q: Dear colleague, I am looking for the recorded Inhibition of the following compound: CCC1CN(CCCn2c3ccccc3c3ccccc32)C(CC)CN1.Cl (stereo not given)
a: 0%
